Entry source: the supplement of paper PMC11417369

- System: PfHDP1 homeodomain (GST-tagged)
- test: gcPBM binding intensity (ln(normalized median fluorescence intensity)); higher = stronger DNA binding
Over roughly 25,000 sequences, “ln(normalized median fluorescence intensity)” has its median near 6.7; the highest 2% begin near 10. Only a selection was taken, and the highest values are over-represented in it overall.
Listing of entries alongside the reported gcPBM binding intensity (ln).

>  <biosequence>
ATTTCTCTATCGTAATGTACAAAAAAAAGGGAAAAG [XGTACX_site1335]

>  <gcPBM binding intensity (ln)>
6.48

$$$$
>  <biosequence>
ATATATATATATTGCACACATATAAATATATATATT [CACACA_site807]

>  <gcPBM binding intensity (ln)>
10.6

$$$$
>  <biosequence>
ATATAAATATAGTGTGCACACACATAATATATATAT [CACACA_site8713]

>  <gcPBM binding intensity (ln)>
10.7

$$$$
>  <biosequence>
TGTAGAAATGGGTGCACACACATATATAATATATAT [CACACA_site2507]

>  <gcPBM binding intensity (ln)>
10.7

$$$$
>  <biosequence>
TTTGTTCATATTATTGTGCACTTAAACGTAACAAAA [GTGCAC_site9505]

>  <gcPBM binding intensity (ln)>
10.1

$$$$
>  <biosequence>
ATTTATGTTATATATACACACACAAAAGAAAAAAAA [CACACA_site8977]

>  <gcPBM binding intensity (ln)>
6.89

$$$$
>  <biosequence>
ATATATATATAGTGCACACATATAAAATATATATAA [CACACA_site2745]

>  <gcPBM binding intensity (ln)>
10.8

$$$$
>  <biosequence>
TTCATGCTTATATGTGCACACACAAAAGAAAAGAAA [CACACA_site1656]

>  <gcPBM binding intensity (ln)>
10.8

$$$$

====

- System: PfHDP1 homeodomain (GST-tagged)
- test: gcPBM binding intensity (ln(normalized median fluorescence intensity)); higher = stronger DNA binding
In all, about 25,000 sequences were measured (“ln(normalized median fluorescence intensity)”: median about 6.7, highest 2% from about 10 on). Only a selection was taken, and the highest values are over-represented in it overall.
Quick rule: gcPBM binding intensity (ln) of at least 8 means Condition met, below that means Condition not met.

>  <biosequence>
TTATAATAGTTAATATGTACATATTTAATAAATAAT [XGTACX_site3183]

>  <class>
Condition not met

$$$$
>  <biosequence>
TTAAAAAAGAATTGTGCACACACAAAAAATGTTCAT [CACACA_site1102]

>  <class>
Condition met

$$$$
>  <biosequence>
TGGGCACCCATATACACACACAAATACAATGATAAA [CACACA_site4762]

>  <class>
Condition not met

$$$$
>  <biosequence>
CATATAAAAATGTGCACACACACACCCATATATATT [CACACA_site1526]

>  <class>
Condition met

$$$$
>  <biosequence>
GTTTACATCATTCTGGTGCAAAAAAAAAAAAAAATA

>  <class>
Condition met

$$$$
>  <biosequence>
TTCTTTTTTTTTAAAACAAACAAACAAACAAACAAA [CACACA_negctrl_site832]

>  <class>
Condition not met

$$$$
>  <biosequence>
TTCATATAAATACATGCACACAAAAATATCAATACA [CACACA_site8753]

>  <class>
Condition met

$$$$

====

- Tested on: PfHDP1 homeodomain (GST-tagged)
- test: gcPBM binding intensity (ln(normalized median fluorescence intensity)); higher = stronger DNA binding
Over roughly 25,000 sequences, “ln(normalized median fluorescence intensity)” has its median near 6.7; the highest 2% begin near 10. Only a selection was taken, and the highest values are over-represented in it overall.
Quick rule: gcPBM binding intensity (ln) of at least 7 means Fulfilled, below that means Not fulfilled.

>  <biosequence>
CACTGTAAATAGAAAGTGCAAAAATTGTAAATAAAA [GTGCAC_site9980]

>  <class>
Fulfilled

$$$$
>  <biosequence>
TAAATTAAAAAAAAAAACAAAAAAAAAGCAACAAAA [CACACA_negctrl_site1318]

>  <class>
Not fulfilled

$$$$
>  <biosequence>
CACCCGCACGTATTTGCACACATTGCCACGTAATTA [CACACA_site5786]

>  <class>
Fulfilled

$$$$
>  <biosequence>
TTATTTACATCAAGTACATGCAGTAAAAAAAAAAAA [TGCATGCA_site351]

>  <class>
Not fulfilled

$$$$

====

- Tested on: PfHDP1 homeodomain (GST-tagged)
- test: gcPBM binding intensity (ln(normalized median fluorescence intensity)); higher = stronger DNA binding
Over roughly 25,000 sequences, “ln(normalized median fluorescence intensity)” has its median near 6.7; the highest 2% begin near 10. The entries come from a sample that favours the highest values as a whole.

>  <biosequence>
TATACATATGAAAATACACACATACATACAGATATA [CACACA_site5002]

>  <gcPBM binding intensity (ln)>
6.64

$$$$
>  <biosequence>
ATTTAGAAAAATAAAACACACATATATCTGTAAATA [CACACA_site6119]

>  <gcPBM binding intensity (ln)>
6.53

$$$$
>  <biosequence>
ATGTGCACATATAAAAGTACACGCACATATATATAT [XGTACX_site1238]

>  <gcPBM binding intensity (ln)>
11

$$$$
>  <biosequence>
GCTAAAAGTATATGCACACACATATATATGCACATA [CACACA_site1635]

>  <gcPBM binding intensity (ln)>
11

$$$$
>  <biosequence>
AAGAAAAGCATAGATGCACACATATATATATATATA [CACACA_site8675]

>  <gcPBM binding intensity (ln)>
9.35

$$$$
>  <biosequence>
TATTTGAAAGCCAATTGTACTTTAGTTTTTGAAACA [XGTACX_site5542]

>  <gcPBM binding intensity (ln)>
5.98

$$$$
>  <biosequence>
GTGTATTTTGTGCGCACACACATGCAAAAAGAAATA [CACACA_site6660]

>  <gcPBM binding intensity (ln)>
9.54

$$$$
>  <biosequence>
GTGCTAAAAGTATATGCACACACATATATATGCACA [CACACA_site8472]

>  <gcPBM binding intensity (ln)>
10.6

$$$$
>  <biosequence>
TTTATATTAGGTCTTGAACGATTTTCATCATTATTA [TGCATGCA_negctrl_site100]

>  <gcPBM binding intensity (ln)>
6.04

$$$$
>  <biosequence>
TACAATAAGGATAAGTGTACATATGTGCATACATAT [XGTACX_site7188]

>  <gcPBM binding intensity (ln)>
10.6

$$$$
>  <biosequence>
AGATAAAAAAAGTACACACACACATATATATATATA [CACACA_site3072]

>  <gcPBM binding intensity (ln)>
9.22

$$$$
>  <biosequence>
ATATATATATATATATGTACATATTATTAATAATAT [XGTACX_site6667]

>  <gcPBM binding intensity (ln)>
9.32

$$$$
>  <biosequence>
TTAATACATATATATATATTATATATATATATATAT [TGCATGCA_negctrl_site177]

>  <gcPBM binding intensity (ln)>
8.89

$$$$
>  <biosequence>
TAAGGGATATGTATATGTACATACAAATATATATAA [XGTACX_site2892]

>  <gcPBM binding intensity (ln)>
6.63

$$$$
>  <biosequence>
AAAATATATTCAACTTGTACATATATATATATATAT [XGTACX_site7629]

>  <gcPBM binding intensity (ln)>
9.4

$$$$
>  <biosequence>
TTTTCTATGCTAAACACACTCATTGTTACAAGTTTT [CACACA_site5531]

>  <gcPBM binding intensity (ln)>
6.78

$$$$
>  <biosequence>
TTATAATTTAATAAATGTACATAAATAATATACATA [XGTACX_site7271]

>  <gcPBM binding intensity (ln)>
6.14

$$$$
>  <biosequence>
TTTATTTTAACTTGTTCACACATTTGAATAAATAAA [CACACA_site5064]

>  <gcPBM binding intensity (ln)>
6.3

$$$$
>  <biosequence>
ATTTATATTACCCTTGCATGTAGGTGCAATTTTTTT [TGCATGCA_site757]

>  <gcPBM binding intensity (ln)>
10.5

$$$$
>  <biosequence>
GAAAAAAGGAAATAAAGAAAAAAAAAAATGAAATAT [XGTACX_negctrl_site318]

>  <gcPBM binding intensity (ln)>
6.22

$$$$
>  <biosequence>
TATATATAATATTATACACACATATATGCATAATAT [CACACA_site54]

>  <gcPBM binding intensity (ln)>
7.56

$$$$
>  <biosequence>
GAAAAGCATAGATGCACACATATATATATATATATA [CACACA_site2169]

>  <gcPBM binding intensity (ln)>
9.77

$$$$
